Please provide measured solubility at 2 min for the entries that follow.
Test: Assay for solubility in distilled water (turbidity by naked eye)
Format: physicochemical
Details: thermodynamic from solid, average of three runs
Field format: number, assumed mg/mL, no unit text.

[ask] Endpoint output: solubility at 2 min of "Cl.Cn1nnc(-c2ccc(-c3ccc(N4C[C@H](COC(=O)[C@@H]5CCCN5)OC4=O)cc3F)cn2)n1" . Value?
[reply] 2

[ask] Another: "Cc1nnc(-c2ccc(-c3ccc(N4C[C@H](COC(=O)[C@@H](N)C(C)C)OC4=O)cc3F)cn2)o1"
[reply] 30.3

[ask] Another: "Cn1nnnc1-c1ccc(-c2ccc(N3C[C@H](COC(=O)CN)OC3=O)cc2F)cn1"
[reply] 28

[ask] Another: "Cc1nnc(-c2ccc(-c3ccc(N4C[C@H](COC(=O)CCN)OC4=O)cc3F)cn2)o1.Cl"
[reply] 5.5

[ask] Another: "Cn1nnc(-c2ccc(-c3ccc(N4C[C@H](CO)OC4=O)cc3F)cn2)n1"
[reply] 0.01

Attribution: patent US8420676B2
